- tested-target: UniProtKB P03951
- experiment-notes: Factor XIa chromogenic substrate (S-2366) inhibition assay
- Format: biochemical
- test-context: substrate S-2366, activity ranges, Table A
pKi: −log10 of the molar value. Counter-ions that a name gives are not always drawn.

>  <compound>
O=C(O)c1ccc(NC(=O)C2c3cccc(N4CCC(N5CCCC5)CC4)c3CCN2C(=O)/C=C/c2c(O)ccc(Cl)c2F)cc1 (racemic)

>  <pKi>
> 8.30

$$$$
>  <compound>
O=C(O)c1ccc(NC(=O)C2c3cccc(N4CCC(N5CCCC5)CC4)c3CCN2C(=O)C=Cc2c(C(F)(F)F)ccc(Cl)c2F)cc1 (stereo not drawn) [Example 179]

>  <pKi>
6.30 to 7.00

$$$$
>  <compound>
CC1(C(=O)N2CCCC2)CCN(c2cccc3c2CCN(C(=O)/C=C/c2c(-n4cnnn4)ccc(Cl)c2F)C3C(=O)Nc2ccc(C(=O)O)cc2)CC1 (racemic)

>  <pKi>
> 8.30

$$$$
>  <compound>
COC(=O)CNC(=O)c1ccc(NC(=O)C2c3cccc(N4CCNCC4)c3CCN2C(=O)/C=C/c2cc(Cl)c(F)cc2-n2cnnn2)cc1 (racemic)

>  <pKi>
6.30 to 7.00

$$$$
>  <compound>
CN(C)[C@H]1CCN(c2cccc3c2CCN(C(=O)/C=C/c2c(-n4cnnn4)ccc(Cl)c2F)[C@@H]3C(=O)Nc2ccc(C(=O)OC(C)(C)C)cc2)C1 [Example 207, bis TFA salt]

>  <pKi>
8.00 to 8.30

$$$$
>  <compound>
NC(=O)CCNC(=O)c1ccc(NC(=O)C2c3cccc(N4CCNCC4)c3CCN2C(=O)/C=C/c2cc(Cl)c(F)cc2-n2cnnn2)cc1 (racemic)

>  <pKi>
5.30 to 6.30

$$$$
>  <compound>
N#Cc1ccc(NC(=O)C2c3cccc(N4CCC(N5CCCC5)CC4)c3CCN2C(=O)/C=C/c2c(-n3cnnn3)ccc(Cl)c2F)cc1 (racemic)

>  <pKi>
> 8.30

$$$$
>  <compound>
CC(=O)c1ccc(Cl)c(F)c1/C=C/C(=O)N1CCc2c(cccc2N2CCCCC2=O)C1C(=O)Nc1ccc(C(=O)O)cc1 (racemic)

>  <pKi>
8.00 to 8.30

$$$$
>  <compound>
CC1(O)CCN(c2cccc3c2CCN(C(=O)C=Cc2c(-n4cnnn4)ccc(Cl)c2F)C3C(=O)Nc2ccc(C(=O)O)cc2)CC1 (stereo not drawn)

>  <pKi>
> 8.30

$$$$
>  <compound>
N#Cc1ccc(Cl)c(F)c1C=CC(=O)N1CCc2c(cccc2N2CCC(N3CCCC3)CC2)C1C(=O)Nc1ccc(C(=O)O)cc1 (stereo not drawn) [Example 164]

>  <pKi>
> 8.30

$$$$
>  <compound>
O=C(O)CCNC(=O)C1c2cccc(N3CCC(N4CCCC4)CC3)c2CCN1C(=O)/C=C/c1c(-n2cnnn2)ccc(Cl)c1F (racemic)

>  <pKi>
6.30 to 7.00

$$$$
>  <compound>
O=C(O)c1ccc(NC(=O)[C@@H]2c3cccc(N4CCCCC4=O)c3CCN2C(=O)/C=C/c2cc(Cl)c(F)cc2-n2cnnn2)cc1

>  <pKi>
8.00 to 8.30

$$$$

---

- tested-target: purified human Factor XIa (Homo sapiens (Human))
- Sequence (P03951 388-625): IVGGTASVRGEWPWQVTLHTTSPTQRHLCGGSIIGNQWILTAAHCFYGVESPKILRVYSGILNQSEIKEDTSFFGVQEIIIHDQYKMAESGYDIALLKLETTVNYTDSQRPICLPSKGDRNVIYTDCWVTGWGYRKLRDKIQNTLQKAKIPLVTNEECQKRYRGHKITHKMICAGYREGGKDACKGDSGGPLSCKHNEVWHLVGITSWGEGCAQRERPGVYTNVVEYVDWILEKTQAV
- Sequence (P03951 19-387 partner): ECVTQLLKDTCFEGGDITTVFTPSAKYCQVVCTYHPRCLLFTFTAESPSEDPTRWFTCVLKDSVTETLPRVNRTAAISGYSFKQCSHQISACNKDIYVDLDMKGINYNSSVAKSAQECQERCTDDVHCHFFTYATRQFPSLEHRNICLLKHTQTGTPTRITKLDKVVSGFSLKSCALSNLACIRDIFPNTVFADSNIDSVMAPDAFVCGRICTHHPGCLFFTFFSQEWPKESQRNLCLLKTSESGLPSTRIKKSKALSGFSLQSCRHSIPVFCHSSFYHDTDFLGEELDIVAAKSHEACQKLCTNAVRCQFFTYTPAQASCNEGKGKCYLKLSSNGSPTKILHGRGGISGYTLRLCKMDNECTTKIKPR
- experiment-notes: Factor XIa chromogenic substrate (S-2366) inhibition assay
- Format: biochemical
- test-context: substrate S-2366, activity ranges, Table A
pKi: −log10 of the molar value. Structures can show the parent of a compound that is named as a salt.

>  <compound>
CN(C)[C@@H]1CCN(c2cccc3c2CCN(C(=O)/C=C/c2c(-n4cnnn4)ccc(Cl)c2F)[C@H]3C(=O)Nc2ccc(C(=O)O)cc2)C1 [Example 209, bis TFA salt]

>  <pKi>
> 8.30

$$$$
>  <compound>
CCOC(=O)c1ccc(NC(=O)[C@@H]2c3cccc(N4CCC(C(=O)N5CCCC5)CC4)c3CCN2C(=O)/C=C/c2c(-n3cnnn3)ccc(Cl)c2F)cc1

>  <pKi>
> 8.30

$$$$
>  <compound>
CCOC(=O)c1ccc(NC(=O)[C@@H]2c3cccc(N4CCNCC4=O)c3CCN2C(=O)/C=C/c2c(-n3cnnn3)ccc(Cl)c2F)cc1

>  <pKi>
8.00 to 8.30

$$$$
>  <compound>
O=C(O)c1ccc(NC(=O)C2c3cccc(N4CCCNCC4)c3CCN2C(=O)C=Cc2c(-n3cnnn3)ccc(Cl)c2F)cc1 (stereo not drawn)

>  <pKi>
> 8.30

$$$$
>  <compound>
CN(C)C(=O)C1CCN(c2cccc3c2CCN(C(=O)C=Cc2c(-n4cnnn4)ccc(Cl)c2F)C3C(=O)Nc2ccc(C(=O)O)cc2)CC1 (stereo not drawn)

>  <pKi>
> 8.30

$$$$
>  <compound>
CN1CCCN(c2cccc3c2CCN(C(=O)/C=C/c2c(-n4cnnn4)ccc(Cl)c2F)C3C(=O)Nc2ccc(C(=O)O)cc2)CC1 (racemic)

>  <pKi>
> 8.30

$$$$
>  <compound>
CN(C)C1CCN(c2cccc3c2CCN(C(=O)/C=C/c2c(-n4cnnn4)ccc(Cl)c2F)C3C(=O)Nc2ccc(C(=O)OC(C)(C)C)cc2)CC1 (racemic)

>  <pKi>
8.00 to 8.30

$$$$
>  <compound>
CNC(=O)N1CCCN(c2cccc3c2CCN(C(=O)/C=C/c2c(-n4cnnn4)ccc(Cl)c2F)C3C(=O)Nc2ccc(C(=O)O)cc2)CC1 (racemic)

>  <pKi>
> 8.30

$$$$
>  <compound>
O=C(O)c1ccc(NC(=O)C2c3cccc(N4CCC(N5CCCC5)CC4)c3CCN2C(=O)/C=C/c2cccc(Cl)c2)cc1 (racemic)

>  <pKi>
8.00 to 8.30

$$$$
>  <compound>
O=C(O)c1ccc(NC(=O)C2c3cccc(N4CCCCCC4)c3CCN2C(=O)/C=C/c2c(-n3cnnn3)ccc(Cl)c2F)cc1 (racemic)

>  <pKi>
> 8.30

$$$$
>  <compound>
O=C(O)c1ccc(NC(=O)C2c3cccc(N4CCC(N5CCCC5)CC4)c3CCN2C(=O)C=Cc2c(C(F)(F)F)ccc(Cl)c2F)cc1 (stereo not drawn) [Example 178]

>  <pKi>
> 8.30

$$$$
>  <compound>
O=C(O)c1ccc(NC(=O)C2c3cccc(N4CCC5(CCNC5)CC4)c3CCN2C(=O)/C=C/c2c(C(F)(F)F)ccc(Cl)c2F)cc1 (racemic)

>  <pKi>
> 8.30

$$$$
